Recorded viability at 10 µM, one value per entry.
Tested on: PC-3
Assay: Cytotoxic activity against human PC3 cells assessed as cell viability at 10 uM incubated for 72 hrs
Assay type: functional
Settings: PC-3, 72 h, read-out: Activity
Just the number please, in %, no unit attached.

Some compounds with recorded viability at 10 µM:
| structure string | result type | unit descriptor | quantitative readout |
| --- | --- | --- | --- |
| CN1C(=O)c2c(c3c4cccc(Cl)c4[nH]c3c3[nH]c4ccccc4c23)C1=O | viability at 10 µM | % | 155 |
| CO[C@H]1[C@H](O)[C@@H](O)[C@H](n2c3ccccc3c3c4c(c5c6ccccc6[nH]c5c32)C(=O)N(C)C4=O)O[C@@H]1CO | viability at 10 µM | % | 98.3 |
| O=C1NC(=O)c2c1c1c3ccccc3[nH]c1c1c2c2ccccc2n1[C@@H]1O[C@H](CO)[C@@H](O)[C@H](O)[C@H]1O | viability at 10 µM | % | 47.7 |

Exercise: Using PC-3 as the test system, report measured viability at 10 µM of CN[C@H]1CO[C@@H](OC[C@H]2O[C@@H](n3c4ccccc4c4c5c(c6c7ccccc7[nH]c6c43)C(=O)N(C)C5=O)[C@H](O)[C@@H](O)[C@@H]2OC)C[C@@H]1O .
Solution: 36.4

Exercise: Using PC-3 as the test system, report measured viability at 10 µM of CO[C@H]1[C@H](O)[C@@H](O)[C@H](n2c3c(Cl)cccc3c3c4c(c5c6ccccc6[nH]c5c32)C(=O)N(C)C4=O)O[C@@H]1CO .
Solution: 69

Exercise: Using PC-3 as the test system, report measured viability at 10 µM of CN[C@H]1CO[C@@H](OC[C@H]2O[C@@H](n3c4c(Cl)cccc4c4c5c(c6c7ccccc7[nH]c6c43)C(=O)NC5=O)[C@H](O)[C@@H](O)[C@@H]2OC)C[C@@H]1O .
Solution: 39

Exercise: Using PC-3 as the test system, report measured viability at 10 µM of CN[C@H]1CO[C@@H](OC[C@H]2O[C@@H](n3c4c(Cl)cccc4c4c5c(c6c7ccccc7[nH]c6c43)C(=O)N(C)C5=O)[C@H](O)[C@@H](O)[C@@H]2OC)C[C@@H]1O .
Solution: 27

---

System: Saccharomyces cerevisiae
Experiment: Antimicrobial activity against Saccharomyces cerevisiae ATCC 204508 assessed as inhibition of microbial growth incubated for 24 hrs
Format: functional
Settings: ATCC 204508, 24 h
Recorded MIC, one value per entry.

| structure string | MIC |
| --- | --- |
| CN[C@H]1CO[C@@H](OC[C@H]2O[C@@H](n3c4c(Cl)cccc4c4c5c(c6c7ccccc7[nH]c6c43)C(=O)N(C)C5=O)[C@H](O)[C@@H](O)[C@@H]2OC)C[C@@H]1O | 7.5 µM |
| CN[C@H]1CO[C@@H](OC[C@H]2O[C@@H](n3c4ccccc4c4c5c(c6c7ccccc7[nH]c6c43)C(=O)N(C)C5=O)[C@H](O)[C@@H](O)[C@@H]2OC)C[C@@H]1O | > 60 µM |
| CO[C@H]1[C@H](O)[C@@H](O)[C@H](n2c3ccccc3c3c4c(c5c6ccccc6[nH]c5c32)C(=O)N(C)C4=O)O[C@@H]1CO | > 60 µM |

Exercise: Return MIC for the following compound: CN[C@H]1CO[C@@H](OC[C@H]2O[C@@H](n3c4c(Cl)cccc4c4c5c(c6c7ccccc7[nH]c6c43)C(=O)NC5=O)[C@H](O)[C@@H](O)[C@@H]2OC)C[C@@H]1O
Solution: > 60 µM
